Assay: protein stability index of a GFP-peptide fusion (GPS, HEK-293T) (PSI 1-6); higher = more stable;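 note: 24-mer peptide tiles fused after GFP, lentivirally expressed, FACS-sorted into six equal bins by GFP/DsRed ratio, decoded by Illumina sequencing, PSI is the read-weighted mean bin number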
Settings: treatment: DMSO; c terminus: a fixed tail appended
Measured protein stability index by item
When you answer, write just the number.

Consider the following illustrative entries.
biosequence="AFSQAISAIQALRSSVSRVFDCLK [MED27]" reported_endpoint="protein stability index" endpoint_result=3.69
biosequence="EARICRLLKHPNIVRLHDSISEEG [CAMK2D]" reported_endpoint="protein stability index" endpoint_result=3.56
biosequence="QARQFRTFHHPTYGSCYTVDGVWT [SCNN1D]" reported_endpoint="protein stability index" endpoint_result=2.21

Looking up AFFKRTIQGNIEYSCPATNECEIT [ESRRG] , I found its protein stability index recorded as 3.11

Looking up GPILQKDYVQLENQWETPPEDLQT [ZNF449] , I found its protein stability index recorded as 4.94

Looking up GGKRRRDDISVDSLDFTKKILHTA [PPP2R2C] , I found its protein stability index recorded as 3.17

Looking up SDLFSLAEEYEDSSTKPPKSRRKA [INTS3] , I found its protein stability index recorded as 5.15

Looking up EVRSKAEEVVSFVKKNVLVTGGFF [FUNDC2] , I found its protein stability index recorded as 2.17

Looking up RTITFEQFQEALEELAKKRFKDKS [TPPP] , I found its protein stability index recorded as 2.54

Looking up RVMPTQEVQELPIPSKLLEFLSYR [WSB1] , I found its protein stability index recorded as 2.94

Data provenance is the supplement of paper PMC10567573.
